Origin of measurements: patent US20250179000A1

# target-entity: UniProt:P31422
# experimental-details: mGlu receptor in vitro assay (thallium flux through GIRK channels / calcium assay), rat mGlu3
# test-parameters: PAM potency with EC20 glutamate
metric: EC50

Field: example entries. Status: answers known.
CCCC(=O)c1ccc(OCc2cnc(-c3ccc(C(=O)O)c(Cl)c3)cn2)c(C)c1O ... 2140 nM
CCCC(=O)c1ccc(OCCCCCOc2cnc(C)c(C(=O)O)c2)c(C)c1O ... > 30000 nM
CCCC(=O)c1ccc(OCCSCCOc2ccc(C(=O)O)cc2OC)c(C)c1O ... > 30000 nM
COc1ccc(C(=O)O)cc1OCCSCCOc1ccc(C(=O)CC(C)(C)C)c(O)c1C ... 70 nM
Cc1c(C(=O)O)cccc1-c1cccc(COc2ccc(C(=O)CC(C)(C)C)c(O)c2C)c1 ... 855 nM

Provide EC50 values for the following items, in order.
1. CCCC(=O)c1ccc(OCCS(=O)(=O)CCOc2ccc(C(=O)O)c(Cl)c2)c(C)c1O
2. Cc1c(OCc2cnc(-c3cccc(-c4nn[nH]n4)c3)cn2)ccc(C(=O)CC(C)(C)C)c1O

A.
["> 30000 nM", "282 nM"]

Q. I would be grateful if you could share the reported EC50 for "COc1ccc(C(=O)NC2CC2)cc1-c1cnc(COc2ccc(C(=O)CC(C)(C)C)c(O)c2C)cn1" .
A. 134 nM

###

# target-entity: Rat mGlu2 (Rattus norvegicus)
# Sequence (P31421 19-872): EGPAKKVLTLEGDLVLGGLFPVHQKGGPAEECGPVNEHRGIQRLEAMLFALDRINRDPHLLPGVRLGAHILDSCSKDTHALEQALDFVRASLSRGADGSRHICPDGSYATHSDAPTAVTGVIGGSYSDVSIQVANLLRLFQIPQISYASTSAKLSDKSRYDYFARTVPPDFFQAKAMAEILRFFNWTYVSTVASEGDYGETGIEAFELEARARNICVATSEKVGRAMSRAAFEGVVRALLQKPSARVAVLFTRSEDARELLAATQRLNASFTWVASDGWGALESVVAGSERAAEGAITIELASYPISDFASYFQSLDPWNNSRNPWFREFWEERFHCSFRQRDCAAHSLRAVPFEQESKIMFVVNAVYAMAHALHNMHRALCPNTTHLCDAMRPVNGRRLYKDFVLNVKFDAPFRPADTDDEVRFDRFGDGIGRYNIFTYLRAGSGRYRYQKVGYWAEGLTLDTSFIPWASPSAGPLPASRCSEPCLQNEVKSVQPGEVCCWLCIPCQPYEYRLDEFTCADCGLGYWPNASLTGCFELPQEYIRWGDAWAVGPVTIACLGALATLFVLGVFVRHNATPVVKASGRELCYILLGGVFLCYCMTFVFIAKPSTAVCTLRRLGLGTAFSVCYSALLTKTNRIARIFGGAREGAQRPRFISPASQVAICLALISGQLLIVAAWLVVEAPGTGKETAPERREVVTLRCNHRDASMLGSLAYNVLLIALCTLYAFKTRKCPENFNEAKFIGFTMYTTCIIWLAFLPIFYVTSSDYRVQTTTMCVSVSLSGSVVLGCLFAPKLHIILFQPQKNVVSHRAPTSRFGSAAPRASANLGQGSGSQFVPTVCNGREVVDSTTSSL
# experimental-details: mGlu receptor in vitro assay, thallium flux through GIRK channels, rat mGlu2
# test-parameters: PAM potency with EC20 glutamate
I'd be grateful if you could share measured pEC50 for these entries.
Answers are plain numbers, as −log10 of the molar value.

COc1ccc(C(=O)O)cc1OCCC(C)(C)CCOc1ccc(C(=O)CC(C)(C)C)c(O)c1C ... 6.67
COc1ccc(C(=O)O)cc1OCc1cccc(COc2ccc(C(=O)CC(C)(C)C)c(O)c2C)c1 ... 6.49
Cc1c(OCc2cccc(-c3cccc(C(=O)O)c3)c2)ccc(C(=O)C2CC2)c1O ... 6.73

Provide pEC50 values for the following items, in order.
1. Cc1c(OCc2cnc(-c3cccc(C(=O)O)c3)cn2)ccc(C(=O)Cc2ccccc2)c1O
2. COc1ccc(C(=O)O)cc1OCCCCOc1ccc(C(O)CC(C)(C)C)c(O)c1C (centres unmarked)
3. Cc1c(OCc2cnc(-c3ccc(F)c(C(=O)O)c3)cn2)ccc(C(=O)CC(C)(C)C)c1O
4. Cc1c(OCc2cccc(-c3cccc(C(=O)O)c3)c2)ccc(C(=O)Cc2ccccc2)c1O
5. CCCC(=O)c1ccc(OCc2nc(-c3cccc(C(=O)O)c3)no2)c(C)c1O
6. [2H]C([2H])(CCCC([2H])([2H])Oc1ccc(C(=O)CCC)c(O)c1C)Oc1cccc(C(=O)O)c1C

A.
6.11
5.79
6.45
6.70
6.97
6.76

Provide pEC50 values for the following items, in order.
1. Cc1c(OCc2cccc(-c3cccc(C(=O)NC#N)c3)c2)ccc(C(=O)CC(C)(C)C)c1O
2. CCCC(=O)c1ccc(OCc2cnc(-c3ccc(C(=O)O)c(Cl)c3)cn2)c(C)c1O
3. Cc1c(OCCCCOc2ccc(C(=O)O)c(F)c2)ccc(C(=O)CC(C)C)c1O

A.
[6.78, 6.60, 7.10]

###

I'd be grateful if you could share measured EC50 for these entries.
# target-entity: Rat mGlu3 (Rattus norvegicus, UniProt P31422)
# Sequence (P31422 23-879): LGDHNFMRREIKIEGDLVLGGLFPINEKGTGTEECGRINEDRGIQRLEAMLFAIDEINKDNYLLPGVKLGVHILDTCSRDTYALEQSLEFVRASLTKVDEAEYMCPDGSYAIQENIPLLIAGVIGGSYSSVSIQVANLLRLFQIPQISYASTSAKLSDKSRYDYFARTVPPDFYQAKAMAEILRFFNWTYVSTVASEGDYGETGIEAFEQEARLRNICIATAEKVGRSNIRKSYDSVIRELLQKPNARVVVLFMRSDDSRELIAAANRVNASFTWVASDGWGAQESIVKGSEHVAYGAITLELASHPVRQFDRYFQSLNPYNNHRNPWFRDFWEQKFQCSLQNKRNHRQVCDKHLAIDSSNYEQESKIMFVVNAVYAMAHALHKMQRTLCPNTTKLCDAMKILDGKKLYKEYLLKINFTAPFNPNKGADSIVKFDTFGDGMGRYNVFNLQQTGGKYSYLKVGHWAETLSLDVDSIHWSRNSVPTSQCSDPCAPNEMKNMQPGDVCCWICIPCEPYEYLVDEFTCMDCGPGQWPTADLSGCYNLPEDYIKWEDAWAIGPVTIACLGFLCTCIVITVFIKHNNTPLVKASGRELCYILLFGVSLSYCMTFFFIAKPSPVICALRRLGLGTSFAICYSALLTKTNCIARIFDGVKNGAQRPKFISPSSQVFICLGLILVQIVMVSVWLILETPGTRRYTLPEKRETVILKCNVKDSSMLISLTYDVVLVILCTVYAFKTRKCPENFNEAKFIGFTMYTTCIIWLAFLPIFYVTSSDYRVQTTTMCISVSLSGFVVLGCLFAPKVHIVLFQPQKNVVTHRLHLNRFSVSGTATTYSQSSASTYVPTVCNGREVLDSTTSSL
# experimental-details: mGlu receptor in vitro assay (thallium flux through GIRK channels / calcium assay), rat mGlu3
# test-parameters: PAM potency with EC20 glutamate
Give bare numbers, in µM.

CCCC(=O)c1ccc(OCCCCCCOc2cccc(C(=O)O)c2C)c(C)c1O ... 1.17
Cc1c(OCc2ccc(-c3cccc(C(=O)O)c3)nn2)ccc(C(=O)CC(C)(C)C)c1O ... 0.616
COc1ccc(C(=O)O)cc1OCCCCOc1ccc(C(=O)C(C)(C)C)c(O)c1C ... 0.743
[2H]C([2H])(CCCC([2H])([2H])Oc1ccc(C(=O)CCC)c(O)c1C)Oc1ccc(C(=O)O)c(Cl)c1 ... 0.92
Cc1c(OCC#CCOc2ccc(C(=O)CC(C)(C)C)c(O)c2C)cccc1C(=O)O ... 0.02
COc1ccc(C(=O)O)cc1OCCCCOc1ccc(C(=O)CC(C)(C)C)c(O)c1 ... 0.309
COc1ccc(C(=O)O)cc1C#CCCCOc1ccc(C(=O)CC(C)(C)C)c(O)c1C ... 0.091
COC(=O)N(CCOc1cc(C(=O)O)ccc1OC)CCOc1ccc(C(=O)CC(C)(C)C)c(O)c1C ... 0.649

Provide EC50 values for the following items, in order.
1. Cc1c(SCc2cccc(-c3cccc(C(=O)O)c3)c2)ccc(C(=O)CC(C)(C)C)c1O
2. COc1cc(F)c(C(=O)O)cc1-c1cccc(COc2ccc(C(=O)CC(C)(C)C)c(O)c2C)c1
3. Cc1c(OCCCCCOc2ccc(C(=O)CC(C)(C)C)c(O)c2C)cccc1C(=O)O

A.
2.53
0.559
1.52

###

# target-entity: Human mGlu3 (Homo sapiens, UniProt Q14832)
# Sequence (Q14832 23-879): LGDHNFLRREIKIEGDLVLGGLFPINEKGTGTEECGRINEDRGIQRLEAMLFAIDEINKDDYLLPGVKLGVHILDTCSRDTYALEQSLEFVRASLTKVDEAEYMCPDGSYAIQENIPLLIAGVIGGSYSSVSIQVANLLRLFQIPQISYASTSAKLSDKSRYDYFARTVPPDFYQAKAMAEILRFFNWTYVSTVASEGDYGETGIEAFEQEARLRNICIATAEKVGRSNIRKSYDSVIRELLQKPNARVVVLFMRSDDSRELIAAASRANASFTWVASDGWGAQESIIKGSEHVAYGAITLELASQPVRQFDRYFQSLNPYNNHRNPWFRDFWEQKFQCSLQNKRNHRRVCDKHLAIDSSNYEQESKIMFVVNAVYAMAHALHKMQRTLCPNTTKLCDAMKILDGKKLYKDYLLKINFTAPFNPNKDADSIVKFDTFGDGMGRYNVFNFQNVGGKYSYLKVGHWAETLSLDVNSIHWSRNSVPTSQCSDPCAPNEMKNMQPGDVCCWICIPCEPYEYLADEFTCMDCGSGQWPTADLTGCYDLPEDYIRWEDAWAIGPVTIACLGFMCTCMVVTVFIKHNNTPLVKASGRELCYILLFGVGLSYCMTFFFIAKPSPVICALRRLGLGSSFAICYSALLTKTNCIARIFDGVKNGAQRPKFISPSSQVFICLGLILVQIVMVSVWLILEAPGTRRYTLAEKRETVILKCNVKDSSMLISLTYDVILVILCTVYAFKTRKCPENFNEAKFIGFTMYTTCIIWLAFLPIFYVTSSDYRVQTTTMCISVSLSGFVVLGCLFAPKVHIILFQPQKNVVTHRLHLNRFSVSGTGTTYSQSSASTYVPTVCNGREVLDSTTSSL
# experimental-details: mGlu receptor in vitro assay, human mGlu3
I'd be grateful if you could share measured log10 EC50 for these entries.
// do not treat as linear: log10 of EC50, unit nM

Provide log10 EC50 values for the following items, in order.
1. COc1cc(F)c(C(=O)O)cc1-c1cnc(COc2ccc(C(=O)CC(C)(C)C)c(O)c2C)cn1
2. COc1ccc(C(=O)O)cc1OCCSCCOc1ccc(C(=O)CC(C)(C)C)c(O)c1C

A.
1: 1.49; 2: 1.18

###

# target-entity: Human mGlu3 (Homo sapiens)
# experimental-details: mGlu receptor in vitro assay, human mGlu3
I'd be grateful if you could share measured pEC50 for these entries.
One number for each entry, as −log10 of the molar value.

COc1ccc(C(=O)O)cc1C#CCCCOc1ccc(C(=O)CC(C)(C)C)c(O)c1C [Example 2] ... 7.10

Provide pEC50 values for the following items, in order.
1. COc1cccc(C(=O)c2ccc(OCc3cccc(-c4cccc(C(=O)O)c4)c3)c(C)c2O)c1 [compound 62]
2. COc1cc(C(=O)O)cc(-c2cnc(COc3ccc(C(=O)CC(C)(C)C)c(O)c3C)cn2)c1 [compound 129]
3. COc1ccc(C(=O)O)cc1OCCCCCOc1ccc(C(=O)CC(C)(C)C)c(O)c1C [Example 11]

A.
1: 5.80; 2: 6.44; 3: 6.90

###

# target-entity: Human mGlu3 (Homo sapiens)
# experimental-details: mGlu receptor in vitro assay, human mGlu3
I'd be grateful if you could share measured EC50 for these entries.
Numbers only, in nM.

Field: example entries. Status: answers known.
CCCC(=O)c1ccc(OCc2nc(-c3cccc(C(=O)O)c3)no2)c(C)c1O ... 748
COc1ccc(C(=O)O)cc1OCCCCSc1ccc(C(=O)CC(C)(C)C)c(O)c1C ... 340

Now let's try a different one.
Q. I would be grateful if you could share the reported EC50 for "CCCC(=O)c1ccc(OCCOCCOc2ccc(C(=O)O)c(Cl)c2)c(C)c1O" .
A. 886

###

I'd be grateful if you could share measured EC50 for these entries.
# target-entity: UniProtKB Q14416
# Sequence (Q14416 19-872): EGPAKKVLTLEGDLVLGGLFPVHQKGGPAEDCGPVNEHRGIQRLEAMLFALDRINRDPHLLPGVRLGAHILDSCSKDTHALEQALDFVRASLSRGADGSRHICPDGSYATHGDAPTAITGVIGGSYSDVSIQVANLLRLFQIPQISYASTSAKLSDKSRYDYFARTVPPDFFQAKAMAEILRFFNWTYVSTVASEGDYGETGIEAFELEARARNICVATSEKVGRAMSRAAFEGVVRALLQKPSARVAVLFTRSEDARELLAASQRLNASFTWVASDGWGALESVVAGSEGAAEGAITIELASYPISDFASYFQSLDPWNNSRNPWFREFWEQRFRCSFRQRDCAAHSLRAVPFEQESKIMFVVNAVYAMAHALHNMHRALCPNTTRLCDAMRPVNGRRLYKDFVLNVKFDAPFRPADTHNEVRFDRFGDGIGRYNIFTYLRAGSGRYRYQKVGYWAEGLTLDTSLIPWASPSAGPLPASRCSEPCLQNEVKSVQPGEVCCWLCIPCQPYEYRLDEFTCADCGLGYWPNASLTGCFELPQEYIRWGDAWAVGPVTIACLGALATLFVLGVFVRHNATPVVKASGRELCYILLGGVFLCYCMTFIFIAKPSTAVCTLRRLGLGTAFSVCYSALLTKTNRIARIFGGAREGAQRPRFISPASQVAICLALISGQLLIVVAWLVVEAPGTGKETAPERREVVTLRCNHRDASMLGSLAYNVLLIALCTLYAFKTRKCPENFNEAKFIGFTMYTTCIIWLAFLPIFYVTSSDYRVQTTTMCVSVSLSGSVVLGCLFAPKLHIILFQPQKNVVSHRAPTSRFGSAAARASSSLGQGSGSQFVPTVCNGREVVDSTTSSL
# experimental-details: mGlu receptor in vitro assay, human mGlu2
Answers are plain numbers, in nM.

CCCC(=O)c1ccc(OCCCCCOc2ccc(C(=O)O)c(F)c2)c(C)c1O ... 13

Provide EC50 values for the following items, in order.
1. COc1cccc(C(=O)c2ccc(OCc3cccc(-c4cccc(C(=O)O)c4)c3)c(C)c2O)c1
2. COc1ccc(C(=O)O)cc1OCCCCOc1ccc(C(=O)CC(C)(C)C)c(O)c1-c1ccccc1
3. COc1c(C(=O)O)cccc1-c1cccc(COc2ccc(C(=O)CC(C)(C)C)c(O)c2C)c1

A.
1: 1170; 2: 231; 3: 54

###

I'd be grateful if you could share measured EC50 for these entries.
# target-entity: Rat mGlu3 (Rattus norvegicus)
# experimental-details: mGlu receptor in vitro assay (thallium flux through GIRK channels / calcium assay), rat mGlu3
# test-parameters: PAM potency with EC20 glutamate
Answers are plain numbers, in nM.

Field: example entries. Status: answers known.
CCCC(=O)c1ccc(OCc2cnc(-c3cccc(C(=O)O)c3)cn2)c(C)c1O ... 1020
COc1c(C(=O)O)cccc1-c1cnc(COc2ccc(C(=O)CC(C)(C)C)c(O)c2C)cn1 ... 53
CCCC(=O)c1ccc(OCC#CCOc2ccc(C(=O)O)cc2OC)c(C)c1O ... 1900
COc1ccc(C(=O)O)cc1OCCNCCOc1ccc(C(=O)CC(C)(C)C)c(O)c1C ... 4090
Cc1c(OCc2cnc(-c3ccc(C(=O)O)c(Cl)c3)cn2)ccc(C(=O)CC(C)(C)C)c1O ... 523

Provide EC50 values for the following items, in order.
1. CCCC(=O)c1ccc(OC/C=C/COc2ccc(C(=O)O)cc2OC)c(C)c1O
2. Cc1c(OCc2cccc(-c3cccc(C(=O)O)c3)c2)ccc(C(=O)C2CC2)c1O

A.
1: 2590; 2: 3730

Provide EC50 values for the following items, in order.
1. COc1c(C(=O)O)cccc1-c1ccc(COc2ccc(C(=O)CC(C)(C)C)c(O)c2C)cc1
2. Cc1c(OCCCCCOc2ccc(C(=O)O)c(Cl)c2)ccc(C(=O)CC(C)C)c1O
3. Cc1c(OCc2cccc(-c3cccc(C(=O)NC#N)c3)c2)ccc(C(=O)CC(C)(C)C)c1O

A.
1. 69
2. 427
3. 145
